Entries and their measured log10(GI50) follow.
- Test system: OVCAR3 cells
- METHOD_DESCRIPTION: MTT proliferation assay, OVCAR3;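 further: compound given as an 8- or 10-point series, one day after plating, with exposure covering roughly 3-4 cell doublings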
- Assay type: cell-based
- DETAILS: 5 days compound exposure, 1:3 serial dilution starting at 10 μM
*1 amine or outer side, *2 acyl side, *3 side chain or, on linkers, in order; H or OH if unused. Where a SMILES comes first, the peptide text is derived from it. Bridges are numbered along the chain shown (N, C = ends). [ ]: non-standard residue; d: D form. The star is where a group is joined. X197 = CN([C@@H](Cc1cc(Cl)ccc1-c1ccc(=O)[nH]c1)C(=O)[*:2])[*:1]; X76 = CN([C@@H](Cc1cc(Cl)ccc1-c1cnn2cccnc12)C(=O)[*:2])[*:1]; NMehhhLys(Me) = CN([C@@H](CCCCCCCN(C)[*:3])C(=O)[*:2])[*:1]; X118 = Cc1cc(-c2ccc(Cl)cc2C[C@@H](C(=O)[*:2])N(C)[*:1])cnn1; NMe3Pal(2-OcPr,5-F) = CN[C@@H](Cc1cc(F)cnc1OC1CC1)C(=O)O; NMe(hhhLys) = CN([C@@H](CCCCCCCN[*:3])C(=O)[*:2])[*:1]; Cyclobutanecarbonyl(1-CF3) = O=C(C1(C(F)(F)F)CCC1)*; cBuCO(3,3-F2-1-CF3) = O=C(C1(C(F)(F)F)CC(F)(F)C1)*; NMePhe(2,5-Cl2) = CN[C@@H](Cc1cc(Cl)ccc1Cl)C(=O)O; Pro(trans-4-F) = O=C(O)[C@@H]1C[C@@H](F)CN1; Gly(cPr) = N[C@H](C(=O)O)C1CC1
TEST_READOUT: log10(GI50) (log10 of the value in nM)

CC(C)C[C@@H]1NC(=O)[C@@H](N(C)C(=O)[C@@H](NC(=O)[C@@H]2C[C@@H](F)CN2C(=O)C2(C(F)(F)F)CC(F)(F)C2)C2CC2)CCCCCCCN(C)C(=O)[C@H](Cc2cc(Cl)ccc2-c2ccc(=O)[nH]c2)N(C)C1=O [Example 180] ({cBuCO(3,3-F2-1-CF3)}-[Pro(trans-4-F)][Gly(cPr)][NMehhhLys(Me)]L[X197]; lactam 3-C) : 3.09
Cc1cc(-c2ccc(Cl)cc2C[C@H]2C(=O)NCCCCCCC[C@H](N(C)C(=O)[C@@H](NC(=O)[C@@H]3C[C@@H](F)CN3C(=O)C3(C(F)(F)F)CC(F)(F)C3)C3CC3)C(=O)N[C@@H](CC(C)C)C(=O)N2C)cnn1 [Example 295] ({cBuCO(3,3-F2-1-CF3)}-[Pro(trans-4-F)][Gly(cPr)][NMe(hhhLys)]L[X118]; lactam 3-C) : 2.20
CC(C)C[C@@H]1NC(=O)[C@@H](N(C)C(=O)[C@@H](NC(=O)[C@@H]2C[C@@H](F)CN2C(=O)C2(C(F)(F)F)CCC2)C2CC2)CCCCCCCN(C)C(=O)[C@H](Cc2cc(F)cnc2OC2CC2)N(C)C1=O [Example 135] ({Cyclobutanecarbonyl(1-CF3)}-[Pro(trans-4-F)][Gly(cPr)][NMehhhLys(Me)]L[NMe3Pal(2-OcPr,5-F)]; lactam 3-C) : 1.30
CC(C)C[C@@H]1NC(=O)[C@@H](N(C)C(=O)[C@@H](NC(=O)[C@@H]2C[C@@H](F)CN2C(=O)C2(C(F)(F)F)CC(F)(F)C2)C2CC2)CCCCCCCN(C)C(=O)[C@H](Cc2cc(Cl)ccc2-c2cnn3cccnc23)N(C)C1=O [Example 297] ({cBuCO(3,3-F2-1-CF3)}-[Pro(trans-4-F)][Gly(cPr)][NMehhhLys(Me)]L[X76]; lactam 3-C) : 1.48
CC(C)C[C@@H]1NC(=O)[C@@H](N(C)C(=O)[C@@H](NC(=O)[C@@H]2C[C@@H](F)CN2C(=O)C2(C(F)(F)F)CC(F)(F)C2)C2CC2)CCCC=CCCNC(=O)[C@H](Cc2cc(Cl)ccc2-c2cnn(C3CC3)c2)N(C)C1=O [Example 287] : 1.60
CC(C)C[C@@H]1NC(=O)[C@@H](N(C)C(=O)[C@H](C)NC(=O)[C@@H]2C[C@@H](F)CN2C(=O)C2(C(F)(F)F)CC(F)(F)C2)CCCCCCCNC(=O)[C@H](Cc2cc(Cl)ccc2Cl)N(C)C1=O [Example 55] ({cBuCO(3,3-F2-1-CF3)}-[Pro(trans-4-F)]A[NMe(hhhLys)]L[NMePhe(2,5-Cl2)]; lactam 3-C) : 2.85

Source of measurements: patent US20240408169A1
